molecular target: 5-hydroxytryptamine receptor 2C (Rattus norvegicus); test: Induction of penile erection in rats after subcutaneous administration, indicative of 5-HT 2c receptor activation; format: functional, organism-based
PROPERTY: ED50 (mg/kg)
Numeric only. Scale: mg/kg

Give the measured ED50 for COc1ccc2c(c1)-c1c(ccn1CC(C)N)C2(C)C (centres undefined) 0.5

Give the measured ED50 for `C[C@@H](N)Cn1ccc2cc(F)c(Cl)cc21` 2.1

Give the measured ED50 for `COc1ccc2c(c1)-c1c(ccn1C[C@@H](C)N)C2` 2

Give the measured ED50 for CC(N)Cn1ccc2cc(Cl)c(F)cc21 (centres undefined) 1

---
Give the measured ED50 for Cc1ccc2c(c1)-c1c(ccn1CC(C)N)C2(C)C (centres undefined) 0.9

Give the measured ED50 for CC(N)Cn1ccc2cc(Cl)ccc21 (centres undefined) 2.3

Give the measured ED50 for Cc1cccc2c1ccn2CC(C)N (centres undefined) 3.2

----------
target: 5-hydroxytryptamine receptor 2A (Homo sapiens); test: Binding affinity against human 5-hydroxytryptamine 2A receptor using displacement of [3H]5-HT
In this section, each of the compounds is paired with its reported pKi.
Give only the number. pKi is defined as minus log10 of concentration in molar units.

Give 5-hydroxytryptamine receptor 2A (Homo sapiens) pKi for the following compound: CC(N)Cn1ccc2cc(Br)ccc21 (configuration not stated) 6.80

Give 5-hydroxytryptamine receptor 2A (Homo sapiens) pKi for the following compound: `C[C@H](N)Cn1ccc2c(Cl)c(F)ccc21` 7.40

Give 5-hydroxytryptamine receptor 2A (Homo sapiens) pKi for the following compound: Cc1ccc2c(c1)-c1c(ccn1CC(C)N)C2(C)C (configuration not stated) 7.00

Give 5-hydroxytryptamine receptor 2A (Homo sapiens) pKi for the following compound: CC(N)Cn1ccc2cc(Cl)ccc21 (configuration not stated) 6.70

Give 5-hydroxytryptamine receptor 2A (Homo sapiens) pKi for the following compound: Cc1cccc2c1ccn2CC(C)N (configuration not stated) 7.00

Give 5-hydroxytryptamine receptor 2A (Homo sapiens) pKi for the following compound: COc1cccc2c1Cc1ccn(CC(C)N)c1-2 (configuration not stated) 5.50

In the following, a different compound is considered.
Give 5-hydroxytryptamine receptor 2A (Homo sapiens) pKi for the following compound: CC(N)Cn1ccc2c1-c1cc(F)ccc1C2 (configuration not stated) 6.70

----------
In this section, each of the compounds is paired with its reported pKi.
Biological target: 5-hydroxytryptamine receptor 2C (Homo sapiens)
Sequence (P28335 whole entry): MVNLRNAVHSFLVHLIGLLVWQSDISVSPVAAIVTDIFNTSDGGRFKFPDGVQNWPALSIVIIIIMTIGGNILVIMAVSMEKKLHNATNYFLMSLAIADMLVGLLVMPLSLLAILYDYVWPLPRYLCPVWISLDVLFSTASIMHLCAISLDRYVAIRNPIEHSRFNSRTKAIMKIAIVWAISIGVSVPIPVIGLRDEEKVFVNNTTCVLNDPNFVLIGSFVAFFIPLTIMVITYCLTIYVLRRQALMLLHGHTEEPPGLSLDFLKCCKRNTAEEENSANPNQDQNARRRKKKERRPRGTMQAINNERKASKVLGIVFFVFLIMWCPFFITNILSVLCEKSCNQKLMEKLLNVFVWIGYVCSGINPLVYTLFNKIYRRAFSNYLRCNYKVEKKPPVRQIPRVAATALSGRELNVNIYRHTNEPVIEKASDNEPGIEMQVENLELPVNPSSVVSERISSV
Give only the number. pKi is defined as minus log10 of concentration in molar units.

Observe how each entry below is paired with its result.
Give the measured pKi for CC(N)Cn1ccc2ccc(F)cc21 (configuration not stated) 8.40

Give the measured pKi for COc1ccc2c(ccn2CC(C)N)c1 (configuration not stated) 6.10

Give the measured pKi for COc1ccc2c(c1)Cc1ccn(CC(C)N)c1-2 (configuration not stated) 7.90

Give the measured pKi for COc1ccc2c(c1)-c1c(ccn1CC(C)N)C2 (configuration not stated) 9.00

---
Give the measured pKi for `C[C@H](N)Cn1ccc2cc(F)c(F)cc21` 9.00

Give the measured pKi for CC(N)Cn1ccc2cc(F)ccc21 (configuration not stated) 8.20

Give the measured pKi for CC(N)Cn1ccc2cc(Br)ccc21 (configuration not stated) 8.40

Give the measured pKi for CC(N)Cn1ccc2c(F)cccc21 (configuration not stated) 8.10

Give the measured pKi for CC(N)Cn1ccc2cc(Cl)ccc21 (configuration not stated) 8.10

Give the measured pKi for CC(N)Cc1c[nH]c2ccc(F)cc12 (configuration not stated) 8.00

Give the measured pKi for `COc1ccc2c(c1)-c1c(ccn1C[C@@H](C)N)C2` 8.40

Give the measured pKi for COc1cccc2c1-c1c(ccn1CC(C)N)C2 (configuration not stated) 7.90

Give the measured pKi for COc1cccc2c1Cc1ccn(CC(C)N)c1-2 (configuration not stated) 7.00

Give the measured pKi for Cc1ccc2c(c1)-c1c(ccn1CC(C)N)C2(C)C (configuration not stated) 8.50

Give the measured pKi for Cc1ccc2c(c1)-c1c(ccn1CC(C)N)C2 (configuration not stated) 8.10

Give the measured pKi for `C[C@@H](N)Cn1ccc2cc(F)c(F)cc21` 8.40

Give the measured pKi for Cc1cccc2c1ccn2CC(C)N (configuration not stated) 8.20

----------
Biological target: 5-hydroxytryptamine receptor 2C (Rattus norvegicus) (UniProt P08909)
Sequence (whole entry): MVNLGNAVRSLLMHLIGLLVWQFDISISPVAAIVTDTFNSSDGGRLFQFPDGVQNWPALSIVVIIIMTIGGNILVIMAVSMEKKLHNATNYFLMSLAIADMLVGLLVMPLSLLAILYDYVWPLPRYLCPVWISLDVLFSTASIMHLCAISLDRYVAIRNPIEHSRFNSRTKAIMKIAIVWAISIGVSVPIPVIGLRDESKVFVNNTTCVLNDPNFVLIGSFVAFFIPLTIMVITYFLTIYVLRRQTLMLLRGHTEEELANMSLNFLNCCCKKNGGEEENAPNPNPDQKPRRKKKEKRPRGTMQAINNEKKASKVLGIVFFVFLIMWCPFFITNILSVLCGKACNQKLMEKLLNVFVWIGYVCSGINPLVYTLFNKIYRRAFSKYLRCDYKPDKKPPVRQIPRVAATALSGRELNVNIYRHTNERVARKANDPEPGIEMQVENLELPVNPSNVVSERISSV
Test: Induction of penile erection in rats after subcutaneous administration, indicative of 5-HT 2c receptor activation
Type: functional, organism-based
PROPERTY: ED50 (mg/kg)
Numeric only. Scale: mg/kg

Observe how each entry below is paired with its result.
Give the measured ED50 for `C[C@H](N)Cn1ccc2cc(F)c(F)cc21` 0.3

Give the measured ED50 for `C[C@H](N)Cn1ccc2cc(F)c(Cl)cc21` 0.5

Give the measured ED50 for CC(N)Cn1ccc2c1-c1cc(Cl)ccc1C2 (configuration not stated) 2.7

---
Give the measured ED50 for CC(N)Cn1ccc2c1-c1cc(F)ccc1C2(C)C (configuration not stated) 2.7

Give the measured ED50 for `C[C@@H](N)Cn1ccc2cc(F)c(F)cc21` 2.7

----------
5-hydroxytryptamine receptor 2A (Homo sapiens, UniProt P28223) data, read-out pKi
Sequence (P28223 whole entry): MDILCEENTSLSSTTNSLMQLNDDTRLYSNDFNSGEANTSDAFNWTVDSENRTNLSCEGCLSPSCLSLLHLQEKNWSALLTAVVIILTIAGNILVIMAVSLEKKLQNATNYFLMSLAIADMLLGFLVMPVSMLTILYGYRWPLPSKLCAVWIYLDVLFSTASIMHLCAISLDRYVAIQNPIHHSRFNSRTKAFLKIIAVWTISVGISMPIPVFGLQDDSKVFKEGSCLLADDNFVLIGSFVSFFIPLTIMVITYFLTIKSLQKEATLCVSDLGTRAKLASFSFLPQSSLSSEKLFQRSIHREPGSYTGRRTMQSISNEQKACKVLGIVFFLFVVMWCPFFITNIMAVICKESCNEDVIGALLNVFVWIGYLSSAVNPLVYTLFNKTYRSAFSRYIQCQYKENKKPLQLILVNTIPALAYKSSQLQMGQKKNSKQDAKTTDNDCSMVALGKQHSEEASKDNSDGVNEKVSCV
Give only the number. pKi is defined as minus log10 of concentration in molar units.

Give 5-hydroxytryptamine receptor 2A (Homo sapiens, UniProt P28223) pKi for the following compound: `COc1ccc2c(c1)-c1c(ccn1C[C@H](C)N)C2` 6.90

Give 5-hydroxytryptamine receptor 2A (Homo sapiens, UniProt P28223) pKi for the following compound: COc1ccc2c(c1)Cc1ccn(CC(C)N)c1-2 (stereo not drawn) 6.40

Give 5-hydroxytryptamine receptor 2A (Homo sapiens, UniProt P28223) pKi for the following compound: CC(N)Cn1ccc2c(F)cccc21 (stereo not drawn) 6.80

Give 5-hydroxytryptamine receptor 2A (Homo sapiens, UniProt P28223) pKi for the following compound: `C[C@H](N)Cn1ccc2cc(F)c(Cl)cc21` 7.50

Give 5-hydroxytryptamine receptor 2A (Homo sapiens, UniProt P28223) pKi for the following compound: CC(N)Cn1ccc2cc(F)ccc21 (stereo not drawn) 6.80

Give 5-hydroxytryptamine receptor 2A (Homo sapiens, UniProt P28223) pKi for the following compound: COc1ccc2c(c1)-c1c(ccn1CC(C)N)C2 (stereo not drawn) 6.90

Give 5-hydroxytryptamine receptor 2A (Homo sapiens, UniProt P28223) pKi for the following compound: `COc1ccc2c(c1)-c1c(ccn1C[C@@H](C)N)C2` 6.90

Give 5-hydroxytryptamine receptor 2A (Homo sapiens, UniProt P28223) pKi for the following compound: `C[C@@H](N)Cn1ccc2c(Cl)c(F)ccc21` 8.00

----------
biological target: 5-hydroxytryptamine receptor 2C (Rattus norvegicus); assay: Induction of penile erection in rats after subcutaneous administration, indicative of 5-HT 2c receptor activation; type: functional, organism-based
In this section, each of the compounds is paired with its reported ED50.
Numeric only. Scale: mg/kg

Observe how each entry below is paired with its result.
Give the measured ED50 for CC(N)Cn1ccc2ccc(F)cc21 (stereo not drawn) 0.3

Give the measured ED50 for `C[C@@H](N)Cn1ccc2c(Cl)c(F)ccc21` 3.3

Give the measured ED50 for CC(N)Cn1ccc2cc(F)ccc21 (stereo not drawn) 1

Give the measured ED50 for Cc1ccc2ccn(CC(C)N)c2c1 (stereo not drawn) 3.3

In the following, a different compound is considered.
Give the measured ED50 for CC(N)Cn1ccc2c1-c1cc(F)ccc1C2 (stereo not drawn) 1.5
